Assay: Oral bioavailability in dog at 1 mg/kg
Type: ADME, organism-based, Canis lupus familiaris
Details: in vivo

{"CPD_SMILES": "NC(=O)c1cnc(-c2cnc3c(Nc4ccc(C(F)(F)F)cn4)ccnc3n2)c(C(F)(F)F)c1", "bioavailability": "57%"}

====

Overview of recorded pIC50 for various molecules
Target: Transient receptor potential cation channel subfamily V member 1 (Rattus norvegicus, UniProt O35433)
Sequence (O35433 whole entry): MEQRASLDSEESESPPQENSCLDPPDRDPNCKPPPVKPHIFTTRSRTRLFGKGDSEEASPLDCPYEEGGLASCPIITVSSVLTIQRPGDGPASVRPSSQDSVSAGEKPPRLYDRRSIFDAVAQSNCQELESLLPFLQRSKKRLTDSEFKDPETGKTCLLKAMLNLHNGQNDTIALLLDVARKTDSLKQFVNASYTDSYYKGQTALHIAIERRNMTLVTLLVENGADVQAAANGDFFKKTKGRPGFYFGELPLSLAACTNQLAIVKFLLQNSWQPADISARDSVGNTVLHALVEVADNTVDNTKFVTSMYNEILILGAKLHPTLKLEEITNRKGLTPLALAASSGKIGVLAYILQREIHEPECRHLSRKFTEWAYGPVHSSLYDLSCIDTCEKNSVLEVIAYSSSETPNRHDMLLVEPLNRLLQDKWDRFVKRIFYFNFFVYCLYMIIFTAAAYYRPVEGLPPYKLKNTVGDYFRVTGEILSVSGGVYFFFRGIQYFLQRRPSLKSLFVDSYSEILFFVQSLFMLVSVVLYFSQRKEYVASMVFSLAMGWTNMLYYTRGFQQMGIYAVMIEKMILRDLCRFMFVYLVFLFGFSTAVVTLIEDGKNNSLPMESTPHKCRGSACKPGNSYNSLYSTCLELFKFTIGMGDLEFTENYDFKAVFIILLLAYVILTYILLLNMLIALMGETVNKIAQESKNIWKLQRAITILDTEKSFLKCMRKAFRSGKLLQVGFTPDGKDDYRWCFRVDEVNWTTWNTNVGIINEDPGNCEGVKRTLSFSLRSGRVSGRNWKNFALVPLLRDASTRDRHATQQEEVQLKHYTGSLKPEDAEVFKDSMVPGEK
Format: functional, tissue-based, Sprague-Dawley, Dorsal root ganglion
Settings: read-out: IC50
Description: Antagonist activity at Sprague-Dawley rat dorsal root ganglion TRPV1 assessed as inhibition of pH (5.0 to 5.5)-induced receptor activation
pIC50: −log10 of the molar value.

{"CPD_SMILES": "FC(F)(F)c1cnc(Nc2ccnc3nc(-c4ncccc4C(F)(F)F)ccc23)nc1", "pIC50": 8.34}
{"CPD_SMILES": "FC(F)(F)c1cnc(Nc2ccnc3nc(-c4ncccc4C(F)(F)F)ccc23)cn1", "pIC50": 8.20}
{"CPD_SMILES": "NC(=O)c1cnc(-c2cnc3c(Nc4ccc(C(F)(F)F)cn4)ccnc3n2)c(C(F)(F)F)c1", "pIC50": 8.89}
{"CPD_SMILES": "FC(F)(F)c1ccc(Nc2ccnc3nc(-c4ncccc4C(F)(F)F)ccc23)nc1", "pIC50": 8.49}
{"CPD_SMILES": "FC(F)(F)c1ccc(Nc2ccnc3nc(-c4nnccc4C(F)(F)F)ccc23)nc1", "pIC50": 8.15}

====

Test: Volume of distribution in rhesus monkey at 1 mg/kg, iv
Assay type: ADME, organism-based, Macaca mulatta
Parameters: dose 1 mg/kg, route intravenous
Settings: in vivo
ATTRIBUTE_MEASURED: Vd (L/kg)

{"CPD_SMILES": "NC(=O)c1cnc(-c2cnc3c(Nc4ccc(C(F)(F)F)cn4)ccnc3n2)c(C(F)(F)F)c1", "UNITS_TEXT": "L/kg", "ASSAY_RESULT": 1}

====

Experiment: AUC (0 to 24 hrs) in rat brain at 10 mg/kg, po
Type: ADME, organism-based
Set-up: time < 24 hr, dose 10 mg/kg, route oral
ATTRIBUTE_MEASURED: AUC(0-t) at 24 h (µM·h)

{"CPD_SMILES": "NC(=O)c1cnc(-c2cnc3c(Nc4ccc(C(F)(F)F)cn4)ccnc3n2)c(C(F)(F)F)c1", "ASSAY_RESULT": 3.4}

====

Experiment: AUC (0 to 24 hrs) in rat at 1 mg/kg, po
Assay type: ADME, organism-based
Parameters: time < 24 hr, dose 1 mg/kg, route oral
Conditions: plasma

{"CPD_SMILES": "NC(=O)c1cnc(-c2cnc3c(Nc4ccc(C(F)(F)F)cn4)ccnc3n2)c(C(F)(F)F)c1", "AUC(0-t) at 24 h (µM·h)": 1.4}

====

Assay: Cmax in rat at 100 mg/kg, po
Format: ADME, organism-based
Parameters: dose 100 mg/kg, route oral
Settings: in vivo

{"CPD_SMILES": "NC(=O)c1cnc(-c2cnc3c(Nc4ccc(C(F)(F)F)cn4)ccnc3n2)c(C(F)(F)F)c1", "Cmax [µM]": 15}

====

Assay: Ratio of drug level in brain to plasma in rat at 10 mg/kg, po
Assay type: ADME, organism-based
Set-up: dose 10 mg/kg, route oral
Conditions: read-out: BPR
ATTRIBUTE_MEASURED: Kp

{"CPD_SMILES": "NC(=O)c1cnc(-c2cnc3c(Nc4ccc(C(F)(F)F)cn4)ccnc3n2)c(C(F)(F)F)c1", "ATTRIBUTE_MEASURED": "Kp", "ASSAY_RESULT": 0.1}
